Target: UniProt Q05397
Sequence (Q05397 whole entry): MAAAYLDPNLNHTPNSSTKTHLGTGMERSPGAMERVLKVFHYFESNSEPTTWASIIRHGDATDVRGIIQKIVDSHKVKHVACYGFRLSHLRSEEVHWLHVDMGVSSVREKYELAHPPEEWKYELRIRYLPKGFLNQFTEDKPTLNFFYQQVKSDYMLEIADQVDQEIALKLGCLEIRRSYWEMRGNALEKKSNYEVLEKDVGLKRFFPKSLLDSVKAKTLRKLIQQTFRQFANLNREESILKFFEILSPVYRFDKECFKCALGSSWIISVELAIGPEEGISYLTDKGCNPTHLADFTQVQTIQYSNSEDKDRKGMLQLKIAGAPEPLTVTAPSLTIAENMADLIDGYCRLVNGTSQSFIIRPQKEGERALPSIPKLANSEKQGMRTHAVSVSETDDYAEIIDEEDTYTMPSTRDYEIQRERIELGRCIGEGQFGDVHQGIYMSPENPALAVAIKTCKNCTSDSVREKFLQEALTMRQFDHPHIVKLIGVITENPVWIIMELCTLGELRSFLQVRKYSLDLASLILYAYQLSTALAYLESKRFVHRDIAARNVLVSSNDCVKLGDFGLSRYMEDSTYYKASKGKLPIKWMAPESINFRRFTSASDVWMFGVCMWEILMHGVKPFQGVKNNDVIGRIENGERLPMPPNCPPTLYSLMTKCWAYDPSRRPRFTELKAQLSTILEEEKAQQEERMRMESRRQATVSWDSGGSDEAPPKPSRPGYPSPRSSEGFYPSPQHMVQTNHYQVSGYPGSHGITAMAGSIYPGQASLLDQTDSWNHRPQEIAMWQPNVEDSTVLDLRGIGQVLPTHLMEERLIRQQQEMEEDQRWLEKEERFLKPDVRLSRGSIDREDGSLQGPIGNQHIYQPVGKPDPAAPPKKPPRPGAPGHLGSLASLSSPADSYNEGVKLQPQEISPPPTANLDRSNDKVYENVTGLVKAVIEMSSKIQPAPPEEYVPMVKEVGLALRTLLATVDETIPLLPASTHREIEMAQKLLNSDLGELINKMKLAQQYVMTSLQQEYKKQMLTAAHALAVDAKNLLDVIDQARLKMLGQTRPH
Test: Inhibition of FAK in human 293GT cells after 1 hr by luminescence-based spectrophotometry
Format: cell-based
Would you mind telling me the reported IC50 of each entry?

{"chemical-string": "CN(c1ccccc1-c1ccc2cnc(Nc3ccc(C4CCN(CC(N)=O)CC4)cc3)nn12)S(C)(=O)=O", "system-under-test": "UniProt Q05397", "IC50": "610 nM"}
{"chemical-string": "COc1ccccc1-c1ccc2cnc(Nc3ccc(C4CCN(CC(N)=O)CC4)cc3)nn12", "system-under-test": "UniProt Q05397", "IC50": "690 nM"}
{"chemical-string": "COc1ccc(-c2ccc3cnc(Nc4ccc(C5CCN(CC(N)=O)CC5)cc4)nn23)cn1", "system-under-test": "UniProt Q05397", "IC50": "1190 nM"}

// input: 5 molecules below; output: IC50 for each
1. Cc1cc(-c2ccccc2N(C)S(C)(=O)=O)n2nc(Nc3ccc(C4CCN(CC(N)=O)CC4)cc3)ncc12
2. CN(c1ccccc1-c1cc(Cl)c2cnc(Nc3ccc(C4CCN(CC(N)=O)CC4)cc3)nn12)S(C)(=O)=O
3. CN(c1ncccc1-c1ccc2cnc(Nc3ccc(C4CCN(CC(N)=O)CC4)cc3)nn12)S(C)(=O)=O
4. CS(=O)(=O)c1ccc(-c2ccc3cnc(Nc4ccc(C5CCN(CC(N)=O)CC5)cc4)nn23)cc1
5. CN(c1cccc(-c2ccc3cnc(Nc4ccc(C5CCN(CC(N)=O)CC5)cc4)nn23)c1)S(C)(=O)=O

Resp:
["1230 nM", "420 nM", "750 nM", "> 10000 nM", "> 10000 nM"]

Origin of measurements: ChEMBL document CHEMBL1932974
